- Method: Binding affinity to GST (unknown origin) by fluorescence spectroscopic analysis
- Type: ADME, Homo sapiens
pKd: −log10 of the molar value.

[
  {
    "Molecule": "Cc1nc(CC(=O)c2ccc(O)c(O)c2O)cs1",
    "pKd": 3.51
  },
  {
    "Molecule": "NC(Cc1c[nH]c2ccc(OCc3ccccc3)cc12)C(=O)O (configuration not stated)",
    "pKd": 4.08
  }
]
